The reported measurements were obtained from patent US7544689B2.

Molecular target: CDK2/cyclin E (Homo sapiens, UniProt P24941)
Construct: His6
Experiment: Kinase assay, CDK2/cyclin E inhibition
READOUT KIND: pIC50
To interpret pIC50, take it as minus log10 of a concentration measured in moles per litre.

Reference set, count: 5
molecule="CCC(O)[C@@H](CC)Nc1nc(NCc2ccccn2)c2ncn(C(C)C)c2n1 (mixture of isomers)" reported_value=6.11
molecule="CC[C@H](Nc1nc(NCc2ccccn2)c2ncn(C(C)C)c2n1)C(O)C(C)(C)C (mixture of isomers)" reported_value=6.00
molecule=CC[C@@H](Nc1nc(NCc2ccccn2)c2ncn(C(C)C)c2n1)C(C)(C)O reported_value=6.32
molecule=CC[C@H](Nc1nc(NCc2ccccn2)c2ncn(C(C)C)c2n1)[C@@H](C)O reported_value=7.30
molecule="CCC(O)[C@H](CC)Nc1nc(NCc2ccccn2)c2ncn(C(C)C)c2n1 (mixture of isomers)" reported_value=6.38

// query So what pIC50 did CC[C@@H](Nc1nc(NCc2ccccn2)c2ncn(C(C)C)c2n1)[C@H](C)O get with CDK2/cyclin E (Homo sapiens, UniProt P24941)?
// result 6.28

// query So what pIC50 did CC[C@H](Nc1nc(NCc2ccccn2)c2ncn(C(C)C)c2n1)C(O)C(C)C (mixture of isomers) get with CDK2/cyclin E (Homo sapiens, UniProt P24941)?
// result 5.51

// query So what pIC50 did CC[C@@H](Nc1nc(NCc2ccccn2)c2ncn(C(C)C)c2n1)C(O)C(C)(C)C (mixture of isomers) get with CDK2/cyclin E (Homo sapiens, UniProt P24941)?
// result 5.55

// query So what pIC50 did CC[C@@H](Nc1nc(NCc2ccccn2)c2ncn(C(C)C)c2n1)C(O)C(C)C (mixture of isomers) get with CDK2/cyclin E (Homo sapiens, UniProt P24941)?
// result 5.47

====

Parameter pIC50: see the listing below.
Target: CDK1/cyclin B (Homo sapiens, UniProt P06493)
Construct: His6; made in house; host or cells: Sf9 insect cells (baculovirus)
Sequence (P06493 whole entry): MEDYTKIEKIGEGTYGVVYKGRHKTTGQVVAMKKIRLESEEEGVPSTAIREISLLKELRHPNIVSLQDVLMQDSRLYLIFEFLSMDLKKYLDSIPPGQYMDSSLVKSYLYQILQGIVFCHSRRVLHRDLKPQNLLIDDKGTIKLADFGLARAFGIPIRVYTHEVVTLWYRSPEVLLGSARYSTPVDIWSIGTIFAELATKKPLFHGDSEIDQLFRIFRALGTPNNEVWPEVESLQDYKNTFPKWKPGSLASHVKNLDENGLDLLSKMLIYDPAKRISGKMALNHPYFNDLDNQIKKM
Sequence (P14635 whole entry partner): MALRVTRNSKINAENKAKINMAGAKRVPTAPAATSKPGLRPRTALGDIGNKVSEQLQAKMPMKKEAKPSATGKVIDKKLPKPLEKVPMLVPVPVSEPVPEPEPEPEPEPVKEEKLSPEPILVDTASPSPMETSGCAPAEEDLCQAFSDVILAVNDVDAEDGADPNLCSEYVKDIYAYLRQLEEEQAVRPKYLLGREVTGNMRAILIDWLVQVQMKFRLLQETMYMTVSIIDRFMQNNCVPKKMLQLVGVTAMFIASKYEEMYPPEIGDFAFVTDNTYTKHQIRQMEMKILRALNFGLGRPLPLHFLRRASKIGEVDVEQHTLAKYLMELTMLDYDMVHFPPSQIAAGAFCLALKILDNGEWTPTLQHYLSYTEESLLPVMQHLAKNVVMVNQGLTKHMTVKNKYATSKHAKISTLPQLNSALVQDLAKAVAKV
Assay: Kinase assay, CDK1/cyclin B inhibition
Format: biochemical
To interpret pIC50, take it as minus log10 of a concentration measured in moles per litre.

molecule=CC[C@H](Nc1nc(NCc2ccccn2)c2ncn(C(C)C)c2n1)[C@@H](C)O reported_value=5.05

Below: the item to evaluate.
// query Any idea what its pIC50 is? The molecule is CCC(O)[C@@H](CC)Nc1nc(NCc2ccccn2)c2ncn(C(C)C)c2n1 (mixture of isomers)
// result 4.46

====

Test system: Human tumour cell lines: A549, HT29, Saos-2
Assay: 72-h MTT cytotoxicity assay
Assay type: cell-based
Conditions: read-out: In vitro anti-proliferative activity (72 h MTT IC50); 72 h MTT; human tumour cell lines A549, HT29, Saos-2
Parameter pIC50: see the listing below.
To interpret pIC50, take it as minus log10 of a concentration measured in moles per litre.

Reference set, count: 4
molecule="CC[C@H](Nc1nc(NCc2ccccn2)c2ncn(C(C)C)c2n1)C(O)C(C)(C)C (mixture of isomers)" reported_value=4.48
molecule="CC[C@@H](Nc1nc(NCc2ccccn2)c2ncn(C(C)C)c2n1)C(O)C(C)C (mixture of isomers)" reported_value=4.64
molecule=CC[C@@H](Nc1nc(NCc2ccccn2)c2ncn(C(C)C)c2n1)[C@H](C)O reported_value=4.92
molecule=CC[C@H](Nc1nc(NCc2ccccn2)c2ncn(C(C)C)c2n1)[C@@H](C)O reported_value=5.01

// query So what pIC50 did CC[C@@H](Nc1nc(NCc2ccccn2)c2ncn(C(C)C)c2n1)C(C)(C)O get with Human tumour cell lines: A549, HT29, Saos-2?
// result 4.46
